All figures here come from patent US7427608B2.

molecular target: Epidermal Growth Factor Receptor Tyrosine Kinase (EGFRTK) (Homo sapiens); assay: Inhibition of EGFRTK; type: biochemical; details: compound at 10 micromolar
Sequence (P00533 25-1210): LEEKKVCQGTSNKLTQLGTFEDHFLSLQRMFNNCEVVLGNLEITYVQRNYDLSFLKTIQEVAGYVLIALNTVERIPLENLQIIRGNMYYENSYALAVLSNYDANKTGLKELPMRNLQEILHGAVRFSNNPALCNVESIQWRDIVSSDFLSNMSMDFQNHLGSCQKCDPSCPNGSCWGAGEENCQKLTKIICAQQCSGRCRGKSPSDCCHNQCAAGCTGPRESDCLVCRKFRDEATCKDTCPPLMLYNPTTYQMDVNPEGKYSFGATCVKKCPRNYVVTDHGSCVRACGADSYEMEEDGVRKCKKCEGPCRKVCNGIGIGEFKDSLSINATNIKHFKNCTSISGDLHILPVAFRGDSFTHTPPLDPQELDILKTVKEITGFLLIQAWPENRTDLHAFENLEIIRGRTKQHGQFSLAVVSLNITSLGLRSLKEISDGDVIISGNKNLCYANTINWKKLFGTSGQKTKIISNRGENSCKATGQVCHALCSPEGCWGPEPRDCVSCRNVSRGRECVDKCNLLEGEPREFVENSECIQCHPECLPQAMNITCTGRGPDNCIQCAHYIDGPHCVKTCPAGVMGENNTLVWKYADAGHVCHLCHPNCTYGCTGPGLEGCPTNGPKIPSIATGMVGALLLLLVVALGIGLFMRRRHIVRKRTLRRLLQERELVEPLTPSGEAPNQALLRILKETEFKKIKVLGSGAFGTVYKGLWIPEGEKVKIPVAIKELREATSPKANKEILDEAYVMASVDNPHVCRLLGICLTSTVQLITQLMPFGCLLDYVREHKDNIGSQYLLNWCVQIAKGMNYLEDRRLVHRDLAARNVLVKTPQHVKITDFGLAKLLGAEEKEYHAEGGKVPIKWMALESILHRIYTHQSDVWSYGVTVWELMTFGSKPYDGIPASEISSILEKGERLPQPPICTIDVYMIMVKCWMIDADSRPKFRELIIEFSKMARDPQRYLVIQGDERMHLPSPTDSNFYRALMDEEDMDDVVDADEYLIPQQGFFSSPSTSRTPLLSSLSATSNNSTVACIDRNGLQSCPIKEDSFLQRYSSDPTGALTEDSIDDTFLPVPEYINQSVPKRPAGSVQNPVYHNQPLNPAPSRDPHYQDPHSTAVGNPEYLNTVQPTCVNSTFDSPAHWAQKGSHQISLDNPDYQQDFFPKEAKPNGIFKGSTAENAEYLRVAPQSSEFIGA
ASSAY READOUT: inhibition at 10 µM (%)
API: value field is a number in %; no unit string.

MOLECULE	ASSAY SYSTEM	inhibition at 10 µM [%]
O=C(NCc1cccc(F)c1)c1cc2cc(F)ccc2[nH]1 [Compound 1z]	Epidermal Growth Factor Receptor Tyrosine Kinase (EGFRTK) (Homo sapiens)	26
O=C(Nc1cccc(CO)c1)c1cc2cc(F)ccc2[nH]1 [Compound 1yyy]	Epidermal Growth Factor Receptor Tyrosine Kinase (EGFRTK) (Homo sapiens)	11

[in] For the molecule COc1ccc(NC(=O)c2cc3cc(F)ccc3[nH]2)cc1CO [Compound 1cccc] , what inhibition at 10 µM is on record?
[out] 19

[in] Another: O=C(NCc1ccc(CO)cc1)c1cc2cc(F)ccc2[nH]1 [Compound 1oooo]
[out] 33

[in] Another: O=C(Nc1ccc(OCc2ccccc2)c(CO)c1)c1[nH]c2ccc(F)cc2c1-c1ccccc1 [Compound 2e]
[out] 10

[in] Another: O=C(N[C@H](c1ccccc1)[C@H](O)c1ccccc1)c1cc2cc(F)ccc2[nH]1 [Compound 1cc]
[out] 19

[in] Another: O=C(NCc1ccc(C(F)(F)F)cc1)c1[nH]c2ccc(F)cc2c1-c1ccccc1 [Compound 2j]
[out] 20

[in] Another: O=C(NCc1cccc(I)c1)c1cc2cc(F)ccc2[nH]1 [Compound 1ff]
[out] 24

[in] Another: O=C(NCc1ccc(F)cc1C(F)(F)F)c1[nH]c2ccc(F)cc2c1-c1ccccc1 [Compound 2hh]
[out] 12

---

target: full length human purified recombinant pp60^c-src (Homo sapiens, UniProt P12931); assay: Inhibition of isolated Src (Lai et al. 1998 assay, intracellular-mimetic conditions); assay type: biochemical; conditions: Example 3 hydroxynaphthalene series; 200 μM ATP; read-out: IC50
Sequence (P12931 whole entry): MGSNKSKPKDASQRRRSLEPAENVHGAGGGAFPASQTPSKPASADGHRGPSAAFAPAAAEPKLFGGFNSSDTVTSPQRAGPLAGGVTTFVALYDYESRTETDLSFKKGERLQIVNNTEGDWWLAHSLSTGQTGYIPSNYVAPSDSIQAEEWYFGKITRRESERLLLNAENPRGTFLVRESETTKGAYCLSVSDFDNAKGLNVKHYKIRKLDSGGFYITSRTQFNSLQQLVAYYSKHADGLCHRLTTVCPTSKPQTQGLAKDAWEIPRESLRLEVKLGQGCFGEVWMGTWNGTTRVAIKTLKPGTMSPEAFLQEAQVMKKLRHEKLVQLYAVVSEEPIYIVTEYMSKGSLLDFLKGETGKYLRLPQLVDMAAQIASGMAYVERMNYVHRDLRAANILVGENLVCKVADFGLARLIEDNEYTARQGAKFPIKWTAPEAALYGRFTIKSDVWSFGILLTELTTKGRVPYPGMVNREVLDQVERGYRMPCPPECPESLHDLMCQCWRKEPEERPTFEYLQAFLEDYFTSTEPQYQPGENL
ASSAY READOUT: pIC50
# pIC50 = -log10(concentration in molar units)

[in] For the molecule O=C(Nc1cccc(O)c1)c1cc2ccc(O)cc2cc1O , what pIC50 is on record?
[out] 4.80

---

biological target: Epidermal Growth Factor Receptor Tyrosine Kinase (EGFRTK) (Homo sapiens); test: Inhibition of EGFRTK; format: biochemical; details: compound at 10 micromolar
ASSAY READOUT: inhibition at 10 µM (%)
API: value field is a number in %; no unit string.

Worked cases, answers included:
MOLECULE	OBSERVED MEASUREMENT
O=C(N[C@@H](c1ccccc1)[C@@H](O)c1ccccc1)c1cc2cc(F)ccc2[nH]1 [Compound 1dd]	41
CCCOc1ccc(CNC(=O)c2cc3cc(F)ccc3[nH]2)cc1O [Compound 1nnnn]	17
O=C(NCc1cc(Br)ccc1F)c1[nH]c2ccc(F)cc2c1-c1ccccc1 [Compound 2ll]	10
COc1cccc([C@H](C)NC(=O)c2cc3cc(F)ccc3[nH]2)c1 [Compound 1aa]	12
O=C(NCC1(O)CCCCC1)c1[nH]c2ccc(F)cc2c1-c1ccccc1 [Compound 2b]	19
Cc1ccccc1CNC(=O)c1cc2cc(F)ccc2[nH]1 [Compound 1ffff]	12
COc1ccc(NC(=O)c2[nH]c3ccc(F)cc3c2-c2ccccc2)cc1CO [Compound 2f]	18

Now examine the next entry.
[in] For the molecule O=C(NCc1cc(OCc2ccccc2)cc(OCc2ccccc2)c1)c1cc2cc(F)ccc2[nH]1 [Compound 1iiii] , what inhibition at 10 µM is on record?
[out] 12
